tested on: Bladder 5637 cells viability, CellTiter-Glo, 72 h; assay: viability loss in 5637 carcinoma cells – cell-based, set 2, cytotoxicity control for bacterial capsule biogenesis inhibitors, dose response (AID 504769)
metricName: CC50

[[record]]
smilesnotation = "O=C(Nc1nc2ccccc2s1)c1cccnc1"
datavalue = "129 µM"

[[record]]
smilesnotation = "O=C(Nc1nc2c(F)cc(F)cc2s1)c1ccccc1"
datavalue = "30.9 µM"

[[record]]
smilesnotation = "O=C(Nc1nc2c(F)cc(F)cc2s1)c1ccncc1"
datavalue = "71.8 µM"

[[record]]
smilesnotation = "O=C(Nc1nc2ccc(F)cc2s1)c1ccccn1"
datavalue = "3.32 µM"

[[record]]
smilesnotation = "O=C(Nc1nc2ccccc2s1)c1ccncc1"
datavalue = "104 µM"

[[record]]
smilesnotation = "O=C(Nc1nc2c(F)cccc2s1)c1ccccn1"
datavalue = "2.56 µM"

[[record]]
smilesnotation = "O=C(Nc1nc2c(Cl)cc(Cl)cc2s1)c1ccccn1"
datavalue = "3.55 µM"

[[record]]
smilesnotation = "Cc1cc(C)c2nc(NC(=O)c3ccccn3)sc2c1"
datavalue = "6.19 µM"

